pIC50: −log10 of the molar value.
pIC50 values for Cyclin-dependent kinase 2 (Homo sapiens) compiled from several publications are listed below.

Return pIC50 measured with Cyclin-dependent kinase 2 (Homo sapiens) given this molecule: N#Cc1cc2ccc(Nc3ccc4c(c3)CNCC4)nc2n(C2CCCC2)c1=O
< 5.30

Return pIC50 measured with Cyclin-dependent kinase 2 (Homo sapiens) given this molecule: COc1ccc(NC(=O)c2ccc(C(=O)Nc3ccc4sc(SC)nc4c3)s2)c(C)c1
≤ 4.40

Return pIC50 measured with Cyclin-dependent kinase 2 (Homo sapiens) given this molecule: COC(=O)c1ccc2c(c1)/C(=C/Nc1ccc(S(N)(=O)=O)cc1)C(=O)N2
8.00 to 9.00

Return pIC50 measured with Cyclin-dependent kinase 2 (Homo sapiens) given this molecule: CN1CCN(c2ccc(Nc3cc4c(C5CCCC5)c(C#N)sc4cn3)cc2)CC1
7.98

Return pIC50 measured with Cyclin-dependent kinase 2 (Homo sapiens) given this molecule: CN(C)C/C=C/C(=O)Nc1ccc(C(=O)NC2CCCC(Nc3ncc(Cl)c(-c4c[nH]c5ccccc45)n3)C2)cc1 (centres unmarked)
< 6.00

Return pIC50 measured with Cyclin-dependent kinase 2 (Homo sapiens) given this molecule: N#Cc1cc2cnc(Nc3ccc4c(c3)CNCC4)nc2n(C2CCCC2)c1=O
7.38

Return pIC50 measured with Cyclin-dependent kinase 2 (Homo sapiens) given this molecule: CN(C)CCNC(=O)c1ccc(C(=O)Nc2ccc(-n3cncn3)cc2)s1
≤ 4.40

Return pIC50 measured with Cyclin-dependent kinase 2 (Homo sapiens) given this molecule: N#Cc1cc2cnc(NC3CCCC3O)nc2n(C2CCCC2)c1=O (centres unmarked)
6.32

Return pIC50 measured with Cyclin-dependent kinase 2 (Homo sapiens) given this molecule: COc1ccc(NC(=O)c2ccc(C(=O)Nc3ccc4c(cnn4C)c3)s2)c(C)c1
≤ 4.40

Return pIC50 measured with Cyclin-dependent kinase 2 (Homo sapiens) given this molecule: COc1ccc(NC(=O)c2ccc(C(=O)Nc3ccc(-n4cncn4)c(F)c3)s2)c(C)c1
≥ 6.00

Return pIC50 measured with Cyclin-dependent kinase 2 (Homo sapiens) given this molecule: COCCn1cc(Nc2ncc3cc(C#N)c(=O)n(C4CCCC4)c3n2)cn1
6.85

Return pIC50 measured with Cyclin-dependent kinase 2 (Homo sapiens) given this molecule: O=C(NCc1ccccc1)c1ccc(C(=O)Nc2ccc(-n3cncn3)cc2)s1
4.40 to 6.00

Return pIC50 measured with Cyclin-dependent kinase 2 (Homo sapiens) given this molecule: COc1ccc(NC(=O)c2ccc(C(=O)Nc3ccc(N(C)C)cc3)s2)c(C)c1
≤ 4.40

Return pIC50 measured with Cyclin-dependent kinase 2 (Homo sapiens) given this molecule: COc1ccc(NC(=O)c2ccc(C(=O)Nc3ccc(-c4csnn4)cc3)s2)c(C)c1
≤ 4.40

Return pIC50 measured with Cyclin-dependent kinase 2 (Homo sapiens) given this molecule: O=S(=O)(NCCO)c1ccc(Nc2nc(Nc3ccccc3)c3cnoc3n2)cc1
5.36

Return pIC50 measured with Cyclin-dependent kinase 2 (Homo sapiens) given this molecule: CN(C)C[C@@H](NC(=O)N1Cc2c(Nc3ccnc(C(F)(F)F)n3)n[nH]c2C1(C)C)C1CCOCC1
5.34

Return pIC50 measured with Cyclin-dependent kinase 2 (Homo sapiens) given this molecule: COc1ccc(NC(=O)c2ccc(C(=O)Nc3ccc(N4CCCCC4)cc3)s2)c(C)c1
≤ 4.40

Return pIC50 measured with Cyclin-dependent kinase 2 (Homo sapiens) given this molecule: Cc1cc(N[C@H]2CCNC2)ccc1NC(=O)c1ccc(C(=O)Nc2ccc(-n3cncn3)c(F)c2)s1
≥ 6.00

Return pIC50 measured with Cyclin-dependent kinase 2 (Homo sapiens) given this molecule: O=C(Nc1ccc(-n2cncn2)cc1)c1ccc(C(=O)NC2CCCCC2)o1
≥ 6.00

Return pIC50 measured with Cyclin-dependent kinase 2 (Homo sapiens) given this molecule: COc1ccc(NC(=O)c2ccc(C(=O)Nc3ccc(N4CCOCC4)cc3)s2)c(C)c1
≤ 4.40

Return pIC50 measured with Cyclin-dependent kinase 2 (Homo sapiens) given this molecule: O=C(Nc1ccc(-n2cncn2)c(F)c1)c1ccc(C(=O)Nc2ccccc2Oc2cccnc2)s1
≤ 4.40

Return pIC50 measured with Cyclin-dependent kinase 2 (Homo sapiens) given this molecule: Cc1cc(NCCN(C)C)ccc1NC(=O)c1ccc(C(=O)Nc2ccc(-n3cncn3)cc2)s1
4.40 to 6.00

Return pIC50 measured with Cyclin-dependent kinase 2 (Homo sapiens) given this molecule: CC(C)N1CCOc2c(F)cc(-c3nc(Nc4ccc(N5CCNC(=O)C5)cn4)ncc3F)cc21
5.61

Return pIC50 measured with Cyclin-dependent kinase 2 (Homo sapiens) given this molecule: C=CC(=O)Nc1ccc2c(Nc3n[nH]c4c3CN(C(=O)N[C@H](CN(C)C)C3CCOCC3)C4(C)C)nccc2c1
< 5.95

Return pIC50 measured with Cyclin-dependent kinase 2 (Homo sapiens) given this molecule: COc1cccc(NC(=O)c2ccc(C(=O)Nc3ccc(-n4cncn4)cc3)s2)c1OC
4.40 to 6.00

Return pIC50 measured with Cyclin-dependent kinase 2 (Homo sapiens) given this molecule: CN1CCN(Cc2ccc(Nc3ncc(-c4ccccc4)o3)cc2)CC1
> 6.00
